target: EeAChE (Electrophorus electricus); construct: purchased Sigma–Aldrich; experiment: biochemical; type: biochemical
Sequence (O42275 24-633): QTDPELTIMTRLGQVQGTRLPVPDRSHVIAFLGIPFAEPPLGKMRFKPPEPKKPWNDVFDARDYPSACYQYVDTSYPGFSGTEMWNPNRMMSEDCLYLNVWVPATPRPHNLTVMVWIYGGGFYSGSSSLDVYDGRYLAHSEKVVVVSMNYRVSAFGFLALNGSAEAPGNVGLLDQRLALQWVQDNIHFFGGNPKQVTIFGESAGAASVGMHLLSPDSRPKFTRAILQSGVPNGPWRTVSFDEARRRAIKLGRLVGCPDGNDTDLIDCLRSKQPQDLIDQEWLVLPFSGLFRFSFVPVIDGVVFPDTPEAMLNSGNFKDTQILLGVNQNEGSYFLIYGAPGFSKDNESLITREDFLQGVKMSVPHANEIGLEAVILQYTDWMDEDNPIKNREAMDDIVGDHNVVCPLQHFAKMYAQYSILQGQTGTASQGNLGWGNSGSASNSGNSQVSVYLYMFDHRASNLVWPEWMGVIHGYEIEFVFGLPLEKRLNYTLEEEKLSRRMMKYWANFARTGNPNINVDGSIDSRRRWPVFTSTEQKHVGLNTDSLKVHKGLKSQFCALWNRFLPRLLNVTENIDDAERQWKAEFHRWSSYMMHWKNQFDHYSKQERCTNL
Parameter pIC50: see the listing below.
Value format note: pIC50 is -log10 of concentration (mol/L); just state the number.

Compound: O=C1c2ccccc2S(=O)(=O)N1CCCCCCCNCc1ccccc1F [Compound 41]
pIC50: 6.13
//
Compound: CCN(CC)CCCCCCCn1ccc2ccccc21 [Compound 34]
pIC50: 4.65
//
Compound: O=C1c2ccccc2C(=O)N1CCCCCCCCN1CCc2ccccc2C1 [Compound 13]
pIC50: 6.12
//
Compound: O=C1c2ccccc2S(=O)(=O)N1CCCCCCNCc1ccccc1F [Compound 40]
pIC50: 5.94
//
Compound: O=C1c2ccccc2S(=O)(=O)N1CCCCCNCc1cccc(Cl)c1 [Compound 42]
pIC50: 7.15

QUERY: So what's the measured pIC50 for this one? O=C1c2ccccc2C(=O)N1CCCCCN1CCc2ccccc2C1 [Compound 10]
RESULT: 5.90

QUERY: So what's the measured pIC50 for this one? O=C1c2ccccc2C(=O)N1CCCCCCN1CCCC1 [Compound 2]
RESULT: 6.19

QUERY: So what's the measured pIC50 for this one? CCN(CC)CCCCCCCCn1ccc2ccccc21 [Compound 35]
RESULT: 5.02

QUERY: So what's the measured pIC50 for this one? O=C1c2ccccc2S(=O)(=O)N1CCCCCNCc1ccccc1F [Compound 39]
RESULT: 6.82

QUERY: So what's the measured pIC50 for this one? O=C1c2ccccc2C(=O)N1CCCCCCCN1CCOCC1 [Compound 7]
RESULT: 5.39
